test: DRUGMATRIX: Purinergic P2X radioligand binding (ligand: [3H] alpha, beta-Methylene-ATP); assay type: cell membranes, Oryctolagus cuniculus, New Zealand albino, Urinary bladder, Membrane; settings: Not Active = under 50% inhibition at 10 µM
Reported Endpoint: IC50

Check out these entries, answers already filled in.
Cc1c(O)cccc1C(=O)N[C@@H](CSc1ccccc1)[C@H](O)CN1C[C@H]2CCCC[C@H]2C[C@H]1C(=O)NC(C)(C)C | Not Active
CN1CCN(C(c2ccccc2)c2ccccc2)CC1 | Not Active
Cn1c(=O)c2c(ncn2C)n(C)c1=O | Not Active
Cc1ccc(C(=O)c2ccc(CC(=O)O)n2C)cc1 | Not Active
CC[C@H]1[C@@H]2C[C@H]3[C@@H]4N(C)c5ccccc5[C@]45C[C@@H]([C@@H]2[C@H]5O)N3[C@@H]1O | Not Active

Documented IC50 of NC(=O)c1cccc(N)c1 [3-AMINOBENZAMIDE] : Not Active

Documented IC50 of CC(=O)OCC(=O)[C@@]1(O)CC[C@H]2[C@@H]3CCC4=CC(=O)CC[C@]4(C)[C@@]3(F)[C@@H](O)C[C@@]21C [FLUDROCORTISONE ACETATE] : Not Active

Documented IC50 of C[C@@](Cc1ccc(O)c(O)c1)(NN)C(=O)O.O : Not Active

Documented IC50 of CC(=O)OCC(COC(C)=O)OC(C)=O : Not Active

The values you see were collected from ChEMBL document CHEMBL1909046.
